Tested on: mPTP
Experiment: mPTP activity (Ca2+ retention) assay in isolated rat liver mitochondria
Type: biochemical
Conditions: examples tested by different contract research organisations, believed comparable
Assay endpoint: mPTP Rat liver pIC50

Compound | Numeric readout
Cn1nc(C(=O)NCC2(Cc3cccc(F)c3)CCC2)[nH]c1=O [Example 84] | 6.72
CC(NC(=O)c1nn(C)c(=O)[nH]1)C(C)(C)Cc1ccccc1 (single isomer, unassigned) [Example 39B] | 6.56
O=C(NCC1(Cc2ccc(F)cc2F)CCC1)c1c[nH]c(=O)cn1 [Example 132] | 6.08
CC(CNC(=O)c1nccc(=O)[nH]1)(Cc1ccc(F)cc1F)C1CC1 (stereo not drawn) [Example 187] | 6.53
O=C(NC[C@H](Cc1ccc(F)cc1F)C1CC1)c1noc(=O)[nH]1 [Example 204] | 6.53
CC(CNC(=O)c1ncc(F)c(=O)[nH]1)(Cc1ccc(F)cc1F)C1CC1 (single isomer, unassigned) [Example 258] | 6.39
Cn1nc(C(=O)NCC2(Cc3ccc(F)c(F)c3F)CCC2)[nH]c1=O [Example 156] | 6.28
Cn1nc(C(=O)NCC2(Cc3cccc(F)c3F)CCC2)[nH]c1=O [Example 95] | 6.16
Cn1nc(C(=O)NC[C@H](Cc2ccccc2)C2CC2)[nH]c1=O [Example 124] | 6.76
CSc1cccc(CC2(CNC(=O)c3nn(C)c(=O)[nH]3)CCC2)c1 [Example 182] | 5.02
CC(c1ccccc1)C1(CNC(=O)c2nn(C)c(=O)[nH]2)CCC1 (stereo not drawn) [Example 25] | 6.42
O=C(NCC1(Cc2ccccc2)CCCC1)c1cncc(=O)[nH]1 [Example 18] | 5.55
Cn1nc(C(=O)NCC2(Cc3ccc(F)cc3F)CCCC2)[nH]c1=O [Example 92] | 6.31
CC[C@H](CNC(=O)c1nn(C)c(=O)[nH]1)Cc1c(F)cc(F)cc1F [Example 125] | 6.55
Cn1nc(C(=O)NCC2(Cc3cc(F)cc(F)c3)CCC2)[nH]c1=O [Example 116] | 6.04
